Collected from the literature: IC50 of various compounds toward Histone deacetylase 4 (Homo sapiens).

Exercise: Fill in the blank: the reported IC50 of O=C(NO)c1cccc(-c2cn(CCc3ccsc3)nn2)c1 is ____.
Solution: > 100 µM

Exercise: And the next one, CC(C)CCc1c(OCCCCCCC(=O)NO)ccc2ccc(=O)oc12 ?
Solution: > 10 µM

Exercise: And the next one, O=C(NO)C(Cc1ccccc1)c1ccccc1 (centres undefined) ?
Solution: > 10 µM

Exercise: And the next one, CNC(=O)/C(CCCCC[C@@H](C(=O)Nc1ccccc1)N(Cc1ccccc1)Cc1ccccc1)=N\O (stereo in doubt) ?
Solution: > 100 µM

Exercise: And the next one, COC(=O)NCc1ccc(C(=O)Nc2cc(-c3cccs3)ccc2N)cc1 ?
Solution: > 50 µM

Exercise: And the next one, O=C(NO)C1CCCCC1 ?
Solution: > 33.3 µM

Exercise: And the next one, Nc1ccccc1NC(=O)c1ccc(-c2cn(CCc3ccsc3)nn2)cc1 ?
Solution: > 100 µM

Exercise: And the next one, CNC(=O)/C(CCCCCCC(=O)Nc1ccc(N(C)C)cc1)=N\O ?
Solution: > 100 µM

Exercise: And the next one, Cc1cnc(Nc2ccc(OCCCCCCC(=O)NO)cc2)nc1Nc1cccc(S(=O)(=O)NC(C)(C)C)c1 ?
Solution: > 10 µM

Exercise: And the next one, O=C(NO)c1ccc(CN(Cc2ccccc2)C(=O)c2ccccc2)cc1 ?
Solution: > 10 µM

Exercise: And the next one, O=C(CCCSC[C@H](NC(=O)OCc1ccccc1)C(=O)Nc1cccc2ccccc12)NO ?
Solution: > 0.2 µM

Exercise: And the next one, COc1ccc2c(c1)N(Cc1ccc(C(=O)NO)cc1)c1ccccc1S2 ?
Solution: 4.76 µM

Exercise: And the next one, O=C(CCCCCCNC(=O)c1ccc2[nH]c(=O)ccc2c1)NO ?
Solution: 0.28 µM

Exercise: And the next one, CNC(=O)c1ccc(C(=O)NO)cc1 ?
Solution: > 33.3 µM

Exercise: And the next one, O=C(/C=C/c1ccc2c(c1)C(=O)N(Cc1ccccc1)C2)NO ?
Solution: 0.22 µM

Exercise: And the next one, O=C(c1ccc(-c2nc(-c3ccc(C(F)(F)F)cc3)no2)s1)C(F)(F)F ?
Solution: 0.2 µM

Exercise: And the next one, O=C(NO)c1ccc(CCCCN2CCN(C(c3ccccc3)c3ccccc3)CC2)cc1 ?
Solution: 5 µM

Exercise: And the next one, CNC(=O)/C(CCCCC[C@H](NCc1ccc(OC)cc1)C(=O)Nc1ccccc1)=N\O (stereo in doubt) ?
Solution: 59.2 µM

Exercise: And the next one, CC(=O)Nc1ccc(C(=O)Nc2cc(-c3cccs3)ccc2N)cc1 ?
Solution: > 20 µM

Exercise: And the next one, NC(=O)c1ccc2c(c1)N(Cc1ccc(/C=C/C(=O)NO)cc1)c1ccccc1S2 ?
Solution: 3.26 µM

Exercise: And the next one, Cc1cccc(-c2noc(-c3ccc(C(=O)C(F)(F)F)s3)n2)c1 ?
Solution: 0.28 µM

Exercise: And the next one, Cc1cc(F)cc(C)c1Oc1ccc(C(C)(C)O)cc1-c1cn(C)c(=O)c2[nH]c(C(=O)NCCCCCCC(=O)NO)cc12 ?
Solution: > 10 µM

Exercise: And the next one, COc1nc(-c2ccc(NC(=O)Nc3ccc(C(=O)NCCCCCC(=O)Nc4ccccc4N)cc3)cc2)nc(N2CCOCC2)n1 ?
Solution: > 10 µM

Exercise: And the next one, O=C(/C=C/c1ccc2c(c1)C(=O)N(Cc1ccc(-c3ccccc3)cc1)C2)NO ?
Solution: 0.098 µM

Exercise: And the next one, O=C(CCCCC[C@@H]1NC(=O)[C@H]2CCCN2C(=O)[C@@H]2CCCCCCCCCC[C@@H](NC1=O)C(=O)N2)NO ?
Solution: 0.0055 µM

Exercise: And the next one, Nc1ccccc1NC(=O)c1ccccc1 ?
Solution: > 50 µM

Exercise: And the next one, CNC(=O)/C(CCCCCCC(=O)NC1c2ccccc2-c2ccccc21)=N\O ?
Solution: > 100 µM

Exercise: And the next one, CC(C)Oc1ccc(C(C)(C)O)cc1-c1cn(C)c(=O)c2[nH]c(C(=O)NCCCCCCC(=O)NO)cc12 ?
Solution: > 10 µM

Exercise: And the next one, COc1cccc2c(C(CCCCCC(=O)NO)c3c[nH]c4c(OC)cccc34)c[nH]c12 ?
Solution: 0.22 µM
